Molecular target: T1, p2S (p2 peptide biotinylated through its free cysteine) (human, also: biotinylated (maleimide PEO2-biotin) on one of the two Cys, which one not given here)
T1 construct: The peptide has two cysteines; also called b-p2S
T1 peptide: RPRYACCPGWKRT
Assay: SPR (BIAcore-2000), IgG injected over immobilized p2S peptide
Where no end group is shown, it is not given here.
QUANTITY_NAME: koff (s⁻¹)

{"BINDER": "4F11.v15 IgG (antibody, name in Kabat numbering, V domains shown, IgG; Kabat numbering) VH: EVQLVESGGGLVQPGGSLRLSCAASGHTFTTYGMSWVRQAPGKGLEWVGWINTHSGVPTYADDFKGRFTISLDNSKNTAYLQMNSLRAEDTAVYYCARLGSSAVDYWGQGTLVTVSS VL: DIQMTQSPSSLSASVGDRVTITCKASQSVDYDGDSYMSWYQQKPGKAPKLLIYGASNLESGVPSRFSGSGSGTDFTLTISSLQPEDFATYYCQQNNEDPYTFGQGTKVEIKR", "OBSERVED": 0.00276}
{"BINDER": "4F11.v13 IgG (antibody, name in Kabat numbering, V domains shown, IgG; Kabat numbering) VH: EVQLVESGGGLVQPGGSLRLSCAASGHTFTTYGMSWVRQAPGKGLEWVGWINTHSGVPTYADDFKGRFTISLDNSKNTAYLQMNSLRAEDTAVYYCARLGSSAVDYWGQGTLVTVSS VL: DIQLTQSPSSLSASVGDRVTITCKASQSVDYDGDSYMSWYQQKPGKAPKLLIYGASNLESGVPSRFSGSGSGTDFTLTISSLQPEDFATYYCQQNNEDPYTFGQGTKVEIKR", "OBSERVED": 0.00186}
{"BINDER": "4F11.v16 IgG (antibody, name in Kabat numbering, V domains shown, IgG; Kabat numbering) VH: EIQLVESGGGLVQPGGSLRLSCAASGHTFTTYGMSWVRQAPGKGLEWMGWINTHSGVPTYADDFKGRFTFSLDTSASTAYLQMNSLRAEDTAVYFCARLGSSAVDYWGQGTLVTVSS VL: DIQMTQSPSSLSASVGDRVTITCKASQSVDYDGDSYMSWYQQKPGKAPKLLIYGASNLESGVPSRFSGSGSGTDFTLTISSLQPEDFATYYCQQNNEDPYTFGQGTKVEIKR", "OBSERVED": 0.00165}

Sourced from patent US20140051120A1
